Taken from PubChem BioAssay.

Biological target: Dihydroorotate dehydrogenase (quinone), mitochondrial (Plasmodium falciparum (isolate 3D7)) (UniProt Q08210)
Sequence (Q08210 whole entry, looked up): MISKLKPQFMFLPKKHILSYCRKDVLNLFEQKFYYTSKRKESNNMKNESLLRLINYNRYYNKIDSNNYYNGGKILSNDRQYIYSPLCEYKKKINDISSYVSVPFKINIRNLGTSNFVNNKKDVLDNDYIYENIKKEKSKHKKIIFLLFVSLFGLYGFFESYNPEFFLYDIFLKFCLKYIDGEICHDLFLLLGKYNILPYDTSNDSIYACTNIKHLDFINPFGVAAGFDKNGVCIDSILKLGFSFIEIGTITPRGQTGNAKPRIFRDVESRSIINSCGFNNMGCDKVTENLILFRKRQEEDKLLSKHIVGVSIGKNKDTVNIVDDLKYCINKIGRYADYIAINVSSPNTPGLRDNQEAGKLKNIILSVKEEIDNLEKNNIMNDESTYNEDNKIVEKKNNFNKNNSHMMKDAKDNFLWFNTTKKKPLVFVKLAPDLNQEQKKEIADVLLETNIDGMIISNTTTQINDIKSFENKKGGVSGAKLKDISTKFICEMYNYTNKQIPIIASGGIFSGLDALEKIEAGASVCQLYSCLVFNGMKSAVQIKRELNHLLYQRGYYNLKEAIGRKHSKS
Assay: inhibition of P. falciparum DHODH – biochemical, C-terminal His tag, absorbance 600 nm, primary screen (AID 1175);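 note: recombinant parasite enzyme with a five histidine tag at its C terminus; test concentration not given here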
Conditions: PfDHODH enzyme, DCIP absorbance 600 nm; higher = more signal, called active from +8 up or from −8 down
Would you mind telling me the reported composite z-score of each entry?
Answers are plain numbers.

Below: 4 molecules and their reported composite z-score.
Entry COc1ccc([Si](C)(C)[C@@H]2[C@@H](CC(=O)N(CCO)Cc3ccccc3)O[C@]3(C(=O)N(Cc4cccc(N5CCCCC5=O)c4)c4ccccc43)[C@H]2C)cc1 ; composite z-score = -1

Looking up CCC1=C2CN(Cc3ccccc3)[C@@H](C(=O)Cc3ccccc3)C2C=CCC1 (stereo partly drawn) , I found its composite z-score recorded as -3.14

Short answer for CCN(CC)c1ccc(N2CC=CC34O[C@@H]5/C=C\CCCOC(=O)C5[C@H]3C(=O)N(C(C)CO)[C@@H]4C2=O)cc1 (stereo partly drawn) : composite z-score was -2.25

Item: CC(C)[Si]1(C(C)C)OCc2cc(-c3ccc(-c4ccc(Cl)c(Cl)c4)o3)nc(-c3ccccc3)c21 | composite z-score: 0.107

Please go through the list and note composite z-score for each molecule.
1. CC(CO)N1C(=O)[C@@H]2[C@H]3C(=O)OCC=C[C@H]3OC23C=CCN(Cn2nnc4ccccc42)C(=O)[C@@H]13 (stereo partly drawn)
2. COCCOC(=O)N1C(=O)[C@@]2(c3cc(C#CC4=CCCCC4)ccc31)[C@H](c1ccccc1OCCO)N1[C@H](c3ccccc3)[C@H](c3ccccc3)OC(=O)[C@H]1[C@@H]2C(=O)N1CCN(c2ncccn2)CC1

A.
[0.29, -0.184]

# batch size: 2; output composite z-score per entry
1. C[N+](C)(C)CCCC[C@@H]1NC(=O)[C@@H]2C[C@H](C(=O)NCCCCCCN)[C@H](c3cccc(OCCO)c3)N2C1=O
2. COCC(=C=CC[C@H](O)c1ccc(CO)o1)CCO

A.
0.441
-2.35
